# Target: T1, FGFR2b on SNU-16 and MFM-223 cells (human, UniProt P21802 22-821)
# T1 chain: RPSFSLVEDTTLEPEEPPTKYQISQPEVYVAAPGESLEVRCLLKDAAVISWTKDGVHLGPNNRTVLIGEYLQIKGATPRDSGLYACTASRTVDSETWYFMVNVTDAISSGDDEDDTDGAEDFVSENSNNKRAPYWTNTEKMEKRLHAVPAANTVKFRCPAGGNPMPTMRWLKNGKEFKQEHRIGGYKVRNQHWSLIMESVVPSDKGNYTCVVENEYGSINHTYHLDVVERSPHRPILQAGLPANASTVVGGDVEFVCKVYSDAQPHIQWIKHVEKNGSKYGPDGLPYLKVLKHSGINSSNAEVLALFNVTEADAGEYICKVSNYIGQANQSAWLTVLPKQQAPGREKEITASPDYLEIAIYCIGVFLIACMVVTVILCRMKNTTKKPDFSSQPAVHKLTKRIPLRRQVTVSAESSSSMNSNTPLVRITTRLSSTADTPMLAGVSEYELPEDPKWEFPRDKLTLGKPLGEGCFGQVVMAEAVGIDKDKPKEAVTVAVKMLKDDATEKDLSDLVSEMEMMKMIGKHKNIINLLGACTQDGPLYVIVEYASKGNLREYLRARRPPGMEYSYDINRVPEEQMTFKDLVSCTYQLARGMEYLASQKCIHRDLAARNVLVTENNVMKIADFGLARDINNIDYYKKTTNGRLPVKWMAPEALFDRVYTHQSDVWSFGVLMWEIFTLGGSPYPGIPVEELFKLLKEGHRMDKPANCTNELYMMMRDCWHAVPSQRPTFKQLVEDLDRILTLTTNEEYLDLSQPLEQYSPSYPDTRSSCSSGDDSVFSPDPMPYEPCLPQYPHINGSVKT
# Assay Procedure: cell-based or functional assay
Recorded Metric: Max % Kill, SNU-16 cells (%)
Express the result in % but write the number alone.

Prompt: What value of Max % Kill, SNU-16 cells has been reported for the following binder? mAb2-tubulysin 1ALP (antibody, V domains shown, deglycosylated; Q295 carries azido-PEG3-amine clicked to Tubulysin 1A-LP; DAR 2.1 per antibody, also called Anti FGFR2 mAb2-PEG3-N3-Tubulysin 1A-LP) VH: QVQLVESGGGVVQPGKSLRLSCAASGFTFSNYGMHWVRQTPVKGLEWVTLIWYDGSNKYYTDSVKGRFTISRDNSKNTLYLQMNSLRSEDTAVYYCAREGNWNYGHAFDIWGQGTMVTVSS VL: DIQMTQSPSTLSASVGDRVTITCRASQNIGNWLAWYQQKPGKAPNLLIYKASTLESGVPSRFSGSGSGTEFTLTISSLQPDDFATYNCQQYNSYSPTFGQGTKLEIKR
Completion: 95.3

Prompt: Please give the measured Max % Kill, SNU-16 cells for this binder: mAb1-maytansinoid 1ALP (antibody, V domains shown, maytansinoid 1ALP (mc-VC-PAB-NMe-C3-May) linker-payload conjugated; residues not stated in Example 5; DAR 2.5 per antibody, it is written on the heavy chain only for want of a better place) VH: QVQLVESGGGVVQPGRSLRLSCAASGFTFSSYGMHWVRQAPGKGLEWVAVIWYDGSNKYYADSVKGRFTISRDNSKNTLYLQMNSLRAEDTAVYYCAREESSASGVDYWGQGTLVTVSS VL: EIVLTQSPGTLSLSPGERATLSCRASQSVSTRYLAWYQQKRGQAPRLLIYGASSRATGIPDRFSGSGSGTDFTLTISRLEPEDFAVYYCQEYGSSSITFGQGTRLEIKR
Completion: 93.1

Prompt: Returns the measured Max % Kill, SNU-16 cells for the input binder. Input: mAb1-tubulysin 1ALP (antibody, human IgG4 S228P, kappa, V domains shown, deglycosylated; Q295 carries azido-PEG3-amine clicked to Tubulysin 1A-LP; DAR 2.1 per antibody, also called Anti FGFR2 mAb1-PEG3-N3-Tubulysin 1A-LP) VH: QVQLVESGGGVVQPGRSLRLSCAASGFTFSSYGMHWVRQAPGKGLEWVAVIWYDGSNKYYADSVKGRFTISRDNSKNTLYLQMNSLRAEDTAVYYCAREESSASGVDYWGQGTLVTVSS VL: EIVLTQSPGTLSLSPGERATLSCRASQSVSTRYLAWYQQKRGQAPRLLIYGASSRATGIPDRFSGSGSGTDFTLTISRLEPEDFAVYYCQEYGSSSITFGQGTRLEIKR
Completion: 95.4
